- test.protocol: Selectivity index, ratio of IC50 for human HeLa cells to IC50 for promastigote form of Leishmania major MHOM/IL/81/BNI
- Format: toxicity, cell-based
- measurement.parameters: read-out: Ratio IC50
Below is a list of entries, each paired with its recorded selectivity ratio value.
Give the figure only, with no unit attached.

Request the reported selectivity ratio associated with COc1ccc(-c2c(-c3ccccc3)nc3ccccn23)cc1
1.92

Further cases:
Tell me the measured selectivity ratio of O=[N+]([O-])c1ccc(-c2nc3ccccn3c2-c2ccccc2)cc1 , please.
18.5

Entry under review: Clc1cc(Cl)cc(-c2c(-c3ccccc3)nc3ccccn23)c1 . Reported selectivity ratio?
2.34

Consider the molecule c1ccc(-c2nc3ccccn3c2-c2cccnc2)cc1 and give its measured selectivity ratio.
0.18

Bench note: what selectivity ratio did Oc1ccc(-c2c(-c3ccccc3)nc3ccccn23)cc1 show?
0.4

Entry COc1ccccc1-c1nc2ccccn2c1-c1ccccc1 has what selectivity ratio?
1.32

Which selectivity ratio is reported for this molecule? Fc1ccc(-c2nc3ccccn3c2-c2cccnc2)cc1
2.27

Which selectivity ratio value is on record for N=C(N)c1ccc(OCCCCCOc2ccc(C(=N)N)cc2)cc1 ?
3.13

Find the recorded selectivity ratio belonging to NC(=O)c1ccc(-c2c(-c3ccccc3)nc3ccccn23)cc1 and report it.
1

// selectivity ratio lookup, key: c1ccc(-c2nc3ccccn3c2-c2ccccc2)cc1
1.38

Sourced from ChEMBL document CHEMBL2150923
